Assay system: Dopamine D2 receptor (Homo sapiens)
Construct: purchased Receptor Biology (now owned by NEN) RBHD2CM
Protocol description: Dopamine D2 receptor binding assay ([125I]iodospiperone)
Test context: relative Ki scale of Table 5; read-out: Relative D2 Receptor Binding Affinity Ki
pKi: −log10 of the molar value. Structures can show the parent of a compound that is named as a salt.
Reported pKi by item:

Example cases with answers are listed next.
Compound	pKi
COCC[C@H]1CN(C2=Nc3ccccc3Nc3ccc(C)cc32)CCN1	6.00 to 7.00
COCC[C@H]1CN(C2=Nc3ccccc3Nc3sc(C(C)C)nc32)CCN1CCOC [Example 343, dihydrochloride]	6.00 to 7.00
CCN1CCN(C2=Nc3ccccc3Nc3sc(C(C)C)nc32)C[C@@H]1CCOC [Example 340, dihydrochloride]	7.00 to 8.00
COCC[C@H]1CN(C2=Nc3ccccc3Nc3sc(CCC(F)(F)F)nc32)CCN1C [Example 338, dihydrochloride]	7.00 to 8.00
COCC[C@H]1CN(C2=Nc3ccccc3Nc3sc(C(F)(F)F)nc32)CCN1C	> 8.00

Item CCOCC[C@H]1CN(C2=Nc3ccccc3Nc3sc(C)nc32)CCN1C [Example 321, dihydrochloride] was tested on Dopamine D2 receptor (Homo sapiens); the reported pKi is 6.00 to 7.00

Item COCC[C@H]1CN(C2=Nc3ccccc3Nc3sc(C(C)C)nc32)CCN1C1CC1 [Example 339, dihydrochloride] was tested on Dopamine D2 receptor (Homo sapiens); the reported pKi is 7.00 to 8.00

====

Assay system: Dopamine D2 receptor (Homo sapiens)
Construct: purchased Receptor Biology (now owned by NEN) RBHD2CM
Protocol description: Dopamine D2 receptor binding assay ([125I]iodospiperone)
Test context: relative Ki scale of Table 5; read-out: Relative D2 Receptor Binding Affinity Ki
pKi: −log10 of the molar value. Structures can show the parent of a compound that is named as a salt.
Reported pKi by item:

The recorded pKi for entry CCOCC[C@H]1CN(C2=Nc3ccccc3Nc3sc(C(C)C)nc32)CCN1C [Example 328, dihydrochloride] equals 7.00 to 8.00

The recorded pKi for entry COCC[C@H]1CN(C2=Nc3ccccc3Nc3sc(CCC(F)(F)F)nc32)CCN1 [Example 318, dihydrochloride] equals > 8.00

The recorded pKi for entry `COCC[C@H]1CN(C2=Nc3ccccc3Nc3sc(C(F)(F)F)nc32)CCN1CCCO` equals 7.00 to 8.00

The recorded pKi for entry CCc1nc2c(s1)Nc1ccccc1N=C2N1CCN(C)[C@@H](CCOC)C1 [Example 322, dihydrochloride] equals 7.00 to 8.00

The recorded pKi for entry `COCC[C@H]1CN(C2=Nc3ccccc3Nc3sc(C(F)(F)F)nc32)CCN1CCO` equals 7.00 to 8.00

The recorded pKi for entry `CCCCc1nc2c(s1)Nc1ccccc1N=C2N1CCN(C)[C@@H](CCOC)C1` equals 7.00 to 8.00

The recorded pKi for entry `COCC[C@H]1CN(C2=Nc3ccccc3Nc3sc(CO)nc32)CCN1` equals 6.00 to 7.00

The recorded pKi for entry `COCC[C@H]1CN(C2=Nc3ccccc3Nc3sc(C(F)(F)F)nc32)CCN1CCCF` equals 7.00 to 8.00

====

Reported Ki by item:
Assay system: human Histamine-1 receptors (Homo sapiens, UniProt P35367)
Construct: expressed in transfected cells
Sequence (P35367 whole entry): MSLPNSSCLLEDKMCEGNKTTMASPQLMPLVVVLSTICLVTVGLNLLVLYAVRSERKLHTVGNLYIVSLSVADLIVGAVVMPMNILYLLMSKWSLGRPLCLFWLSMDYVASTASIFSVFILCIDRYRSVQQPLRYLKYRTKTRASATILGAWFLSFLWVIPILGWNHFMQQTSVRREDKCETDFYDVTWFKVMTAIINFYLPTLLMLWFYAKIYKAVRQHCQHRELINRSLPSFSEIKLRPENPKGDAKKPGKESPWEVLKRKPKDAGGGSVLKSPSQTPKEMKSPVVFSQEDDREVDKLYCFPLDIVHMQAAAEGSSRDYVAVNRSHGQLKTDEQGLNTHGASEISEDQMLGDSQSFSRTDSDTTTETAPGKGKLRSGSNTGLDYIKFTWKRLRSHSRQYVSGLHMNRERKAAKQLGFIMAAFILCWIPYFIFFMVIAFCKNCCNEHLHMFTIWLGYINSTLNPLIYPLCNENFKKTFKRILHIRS
Protocol description: 3H-Pyrilamine SPA binding to human Histamine-1 receptors
Test context: read-out: Receptor affinity (Ki, nM) H1
Counter-ions that a name gives are not always drawn.
Write down the numeric answer in nM and omit the unit.

Example cases with answers are listed next.
Compound	Assay system	Ki (nM)
COCC[C@H]1CN(C2=Nc3cc(F)c(F)cc3Nc3sc(C)cc32)CCN1C.Cl.Cl [Example 288, hydrochloride]	human Histamine-1 receptors (Homo sapiens, UniProt P35367)	80
COCC[C@H]1CN(C2=Nc3ccccc3Nc3sc(C(C)C)nc32)CCN1C.Cl.Cl [Example 327, dihydrochloride]	human Histamine-1 receptors (Homo sapiens, UniProt P35367)	91
COCC[C@H]1CN(C2=Nc3cc(Cl)ccc3Nc3sc(C)cc32)CCN1C [Example 292, dihydrochloride]	human Histamine-1 receptors (Homo sapiens, UniProt P35367)	48

Turning to the following compound.
The recorded Ki for entry COCC[C@H]1CN(C2=Nc3ccc(F)cc3Nc3sc(C)cc32)CCN1C [Example 279, hydrochloride] equals 24

====

Where a name gives a salt, the structure may show the parent alone.
Measurement label: melting point

Example cases with answers are listed next.
Molecule	melting point
Cc1cc2c(s1)Nc1ccccc1N=C2N1CCN[C@@H](COc2ccccc2)C1	64 to 81 °C
CSCC[C@H]1CN(C2=Nc3ccc(F)cc3Nc3sc(C)cc32)CCN1C.Cl.Cl	194 °C
COCC[C@H]1CN(C2=Nc3ccc(Cl)cc3Nc3sc(C)cc32)CCN1C (as salt: hydrochloride) [Example 291, dihydrochloride]	174 to 176 °C

The recorded melting point for entry `Cc1cc2c(s1)Nc1ccccc1N=C2N1CCN[C@H](CCO)C1.Cl.Cl` equals > 250 °C (dec.)

====

Reported Ki by item:
Assay system: Dopamine D2 receptor (Homo sapiens, UniProt P14416)
Construct: purchased Receptor Biology (now owned by NEN) RBHD2CM
Sequence (P14416 1-414 isoform P14416-2): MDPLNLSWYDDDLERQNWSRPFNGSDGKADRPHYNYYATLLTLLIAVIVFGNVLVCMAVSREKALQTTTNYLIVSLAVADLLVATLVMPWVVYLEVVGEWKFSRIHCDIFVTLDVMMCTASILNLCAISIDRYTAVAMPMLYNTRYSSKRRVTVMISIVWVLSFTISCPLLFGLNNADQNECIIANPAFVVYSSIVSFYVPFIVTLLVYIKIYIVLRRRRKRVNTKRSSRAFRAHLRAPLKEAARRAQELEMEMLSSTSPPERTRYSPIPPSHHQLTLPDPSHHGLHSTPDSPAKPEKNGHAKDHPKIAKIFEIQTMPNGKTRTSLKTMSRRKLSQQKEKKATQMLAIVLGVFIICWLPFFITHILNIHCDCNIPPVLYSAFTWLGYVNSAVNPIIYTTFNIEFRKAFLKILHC
Protocol description: Dopamine D2 receptor binding assay ([125I]iodospiperone)
Test context: read-out: Receptor affinity (Ki, nM) D2
Structures can show the parent of a compound that is named as a salt.
Please give the number followed by its unit.

Example cases with answers are listed next.
Compound	Assay system	Ki
COCC[C@H]1CN(C2=Nc3cc(Cl)ccc3Nc3sc(C)cc32)CCN1C [Example 292, dihydrochloride]	Dopamine D2 receptor (Homo sapiens, UniProt P14416)	13 nM
COCC[C@H]1CN(C2=Nc3ccc(F)cc3Nc3sc(C)cc32)CCN1C [Example 279, hydrochloride]	Dopamine D2 receptor (Homo sapiens, UniProt P14416)	6 nM
COCC[C@H]1CN(C2=Nc3cc(F)c(F)cc3Nc3sc(C)cc32)CCN1C.Cl.Cl [Example 288, hydrochloride]	Dopamine D2 receptor (Homo sapiens, UniProt P14416)	11 nM

Turning to the following compound.
The recorded Ki for entry COCC[C@H]1CN(C2=Nc3ccccc3Nc3sc(C(C)C)nc32)CCN1C.Cl.Cl [Example 327, dihydrochloride] equals 9 nM

====

Assay system: Dopamine D2 receptor (Homo sapiens, UniProt P14416)
Construct: purchased Receptor Biology (now owned by NEN) RBHD2CM
Protocol description: Dopamine D2 receptor binding assay ([125I]iodospiperone)
Test context: relative Ki scale of Table 5; read-out: Relative D2 Receptor Binding Affinity Ki
pKi: −log10 of the molar value. Where a name gives a salt, the structure may show the parent alone.
Measurement label: pKi

Example cases with answers are listed next.
Compound	pKi
COC(C)C[C@H]1CN(C2=Nc3ccccc3Nc3sc(C(C)C)nc32)CCN1 (mixture of isomers)	> 8.00
COCC[C@H]1CN(C2=Nc3ccccc3Nc3sc(C(C)C)nc32)CCN1C.Cl.Cl [Example 327, dihydrochloride]	> 8.00
Cc1cc2c(s1)Nc1ccccc1N=C2N1CCN[C@@H](CCO)C1.Cl.Cl [Example 240, dihydrochloride]	7.00 to 8.00
Cc1cc2c(s1)Nc1ccccc1N=C2N1CCN[C@H](CCO)C1.Cl.Cl [Example 241, dihydrochloride]	6.00 to 7.00
CC(C)c1nc2c(s1)Nc1ccccc1N=C2N1CCN(C)[C@@H](CC(C)(C)O)C1 [Example 368, dihydrochloride]	> 8.00

The recorded pKi for entry CCCN1CCN(C2=Nc3ccccc3Nc3sc(C(C)C)nc32)C[C@@H]1CCOC [Example 341, dihydrochloride] equals 7.00 to 8.00

The recorded pKi for entry `CCCN1CCN(C2=Nc3ccccc3Nc3sc(C(F)(F)F)nc32)C[C@@H]1CCOC` equals > 8.00

====

Where a name gives a salt, the structure may show the parent alone.
Measurement label: melting point

Example cases with answers are listed next.
Compound	melting point
Cc1cc2c(s1)Nc1ccccc1N=C2N1CCN[C@@H](CCO)C1.Cl.Cl [Example 240]	> 250 °C (dec.)
COCC[C@H]1CN(C2=Nc3cc(F)c(F)cc3Nc3sc(C)cc32)CCN1 [Example 254]	198 to 202 °C (dec.)
CCOCC[C@H]1CN(C2=Nc3cc(F)ccc3Nc3sc(C)cc32)CCN1C.Cl.Cl	193 to 195 °C
Cc1cc2c(s1)Nc1ccccc1N=C2N1CCN(C)[C@@H](COCc2ccccc2)C1 [Example 270]	55 to 65 °C

The recorded melting point for entry COCC[C@H]1CN(C2=Nc3ccccc3Nc3ccc(C(F)(F)F)cc32)CCN1C [Example 221] equals 48 to 56 °C

The recorded melting point for entry Cc1cc2c(s1)Nc1ccccc1N=C2N1CCN(C)[C@@H](CO)C1 [Example 259] equals 118 to 124 °C

The recorded melting point for entry COCC[C@H]1CN(C2=Nc3ccc(F)cc3Nc3sc(C)cc32)CCN1 (as salt: hydrochloride) [Example 248b, dihydrochloride] equals 90 °C

The recorded melting point for entry Cc1cc2c(s1)Nc1ccccc1N=C2N1CCN(C)[C@@H](COc2ccccc2)C1 [Example 265] equals 74 to 88 °C

The recorded melting point for entry Cc1cc2c(s1)Nc1ccccc1N=C2N1CCN(C)C(COc2ccccc2)C1 (stereo in doubt) [Example 271] equals 74 to 88 °C

The recorded melting point for entry COCC[C@H]1CN(C2=Nc3ccccc3Nc3ccc(C(C)C)cc32)CCN1C (as salt: hydrochloride) equals 210 °C

The recorded melting point for entry COCC[C@H]1CN(C2=Nc3cc(Cl)ccc3Nc3sc(C)cc32)CCN1 [Example 258] equals 179 to 183 °C (dec.)

The recorded melting point for entry COCC[C@H]1CN(C2=Nc3ccc(F)cc3Nc3sc(C)cc32)CCN1C (as salt: hydrochloride) [Example 279a, dihydrochloride] equals 190 to 192 °C

The recorded melting point for entry COCC[C@H]1CN(C2=Nc3ccccc3Nc3ccc(C)cc32)CCN1C [Example 216] equals 60 °C (dec.)

The recorded melting point for entry COCC[C@H]1CN(C2=Nc3ccccc3Nc3ccc(C(C)C)cc32)CCN1 [Example 200] equals 158 to 160 °C
